Reference source: PubChem BioAssay (NCI)

Listed here are compounds together with their documented TGI.
system: SF-295 CNS; test: NCI tumour cell line growth inhibition, 48 h

q: Query for SF-295 CNS: what TGI does the record show for "COc1ccc(/C=C/C(=O)c2sc(-n3nc(-c4ccccc4)cc3-c3ccccc3)nc2C)cc1" ?
a: > 100 µM

q: Form: Entry = "CC1(C)C(=O)C(C)(C)C1=S" | System = SF-295 CNS | TGI = ____
a: > 100 µM

q: Item: "CC1=C(C(=O)Nc2ccc(Cl)c(C(=O)OC(C)C)c2)SCCO1" Test system: SF-295 CNS Read-out: TGI Value: ?
a: > 80.7 µM

q: # value lookup — system SF-295 CNS, readout TGI, item CC1(C)CC(=O)C2=C(C1)OC1=C(CC(C)(C)CC1=O)C2c1ccccc1[N+](=O)[O-] (stereo not given)
a: > 100 µM

q: SF-295 CNS / TGI / "C#CCOc1ccc2ncnc(Nc3ccc(NC(=O)C=C)cc3)c2c1" : value?
a: > 100 µM

q: Quick check: TGI on SF-295 CNS, item O=C(CN1C(=O)S/C(=C\C(Cl)=C\c2ccccc2)C1=O)NC1C=CS(=O)(=O)C1 (stereo not given) ?
a: 5.19 µM

q: # query: TGI | item O=C(Nc1nc2c(ncn2C2OC(CO)C(O)C2O)c(=O)[nH]1)c1ccccc1 (stereo not given) | system: SF-295 CNS
a: > 100 µM

q: Kindly state the measured TGI obtained for "CCc1nc2ccc(NCCN(C)C)c3c(=O)c4ccccc4n1c23" with SF-295 CNS.
a: 5.04 µM

q: Enter reported TGI observed with SF-295 CNS for CN1c2ccccc2N(C(=O)c2ccccc2)C(CC(=O)O)c2cccn21 (stereo not given)
a: > 100 µM

q: Value wanted: TGI (SF-295 CNS) of entry CCOC(=O)C1=COC(C)(CCc2ccccc2)CC1=O (stereo not given)
a: > 100 µM
